- measured_on: NRAS Q61R (Homo sapiens, UniProt P01111+P62937, Q61R)
- Sequence (P01111 whole entry Q61R): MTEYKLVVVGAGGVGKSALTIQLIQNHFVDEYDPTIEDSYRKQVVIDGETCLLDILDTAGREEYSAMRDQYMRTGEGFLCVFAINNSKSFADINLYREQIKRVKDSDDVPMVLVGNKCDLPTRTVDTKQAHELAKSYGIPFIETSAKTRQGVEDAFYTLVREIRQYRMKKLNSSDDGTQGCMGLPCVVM
- Sequence (P62937 whole entry): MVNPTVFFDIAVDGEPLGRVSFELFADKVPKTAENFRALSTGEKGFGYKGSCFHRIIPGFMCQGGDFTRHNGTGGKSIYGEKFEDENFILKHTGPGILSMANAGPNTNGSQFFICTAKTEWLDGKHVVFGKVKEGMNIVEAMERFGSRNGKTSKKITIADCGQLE
- assay_overview: Disruption of BRAF RBD interaction with Ras (FRET / MOA assay, with Cyclophilin A)
- Format: biochemical
- condition_info: NRAS Q61R; read-out: NRAS Q61R FRET data IC50
pIC50: −log10 of the molar value.
readout_type: pIC50

1) CCn1c(-c2cccnc2[C@H](C)OC)c2c3cc(ccc31)-c1csc(n1)C[C@H](NC(=O)[C@H](C(C)C)N(C)C(=O)N1CC(N(C)C(=O)C#CC(C)(C)N3CCC3)C1)C(=O)N1CCC[C@H](N1)C(=O)OCC(C)(C)C2 | 6.00 to 7.00

Consider now this further molecule.
Which pIC50 value belongs to CCn1c(-c2cccnc2[C@H](C)OC)c2c3cc(ccc31)-c1csc(n1)C[C@H](NC(=O)[C@H](C(C)C)N(C)C(=O)N1CC3(CC(O)C3)C1)C(=O)N1CCC[C@H](N1)C(=O)OCC(C)(C)C2 (atropisomer, axis not shown) ?
6.00 to 7.00
